Listed here: items and their measured EC50.
Target: human DP2 (Homo sapiens, UniProt Q9Y5Y4)
Construct: expressed in transfected cells; membranes prepared
Sequence (Q9Y5Y4 whole entry): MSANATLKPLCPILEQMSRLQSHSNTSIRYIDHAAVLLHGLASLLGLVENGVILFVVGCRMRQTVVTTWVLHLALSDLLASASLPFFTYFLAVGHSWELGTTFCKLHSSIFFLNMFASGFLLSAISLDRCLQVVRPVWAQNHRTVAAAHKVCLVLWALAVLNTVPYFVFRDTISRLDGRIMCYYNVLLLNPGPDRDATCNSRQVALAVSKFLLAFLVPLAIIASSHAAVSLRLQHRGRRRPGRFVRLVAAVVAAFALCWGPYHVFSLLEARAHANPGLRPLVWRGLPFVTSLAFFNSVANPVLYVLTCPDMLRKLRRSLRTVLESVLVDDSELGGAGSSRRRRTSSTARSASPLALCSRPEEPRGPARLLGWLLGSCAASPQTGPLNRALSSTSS
Experiment: DP-2 binding inhibition assay (3H-PGD2, membranes of DP2-expressing K562 cells)
Details: 1% HSA, read-out: EC50 (nM) 1% HSA
readout: EC50

COc1ccc2nc(NC(=O)c3ccc(Oc4cc5c(cc4C#N)C(C(=O)O)CCO5)cc3)sc2c1 (stereo not shown) = 146 nM
O=C(Nc1ccc2cc(Cl)ccc2n1)c1ccc(Oc2cc3c(cc2Cl)C(C(=O)O)CCO3)cc1 (stereo not shown) = 120 nM
N#Cc1cc2c(cc1Oc1ccc(C(=O)Nc3nc4ccc(F)cc4s3)cc1)OCCC2C(=O)O (stereo not shown) = 194 nM
N#Cc1cc2c(cc1Oc1ccc(C(=O)Nc3nc4ccccc4s3)cc1)OCCC2C(=O)O (stereo not shown) = 1240 nM
